Species on record: Rattus norvegicus
Method: DrugMatrix - Regimen: Daily Repeat
Assay type: toxicity, organism-based, Sprague-Dawley
Parameters: regimen Daily Repeat, gender Male, age 6-8 weeks
Particulars: in vivo, po, 10 mg/kg, 72 h, tissue Plasma, route oral GAVAGE, dose level Low, time 3 day, vehicle .5 % CMC
Known GLUCOSE of a selection of molecules
Report as a plain number; the unit mg/dL is understood.

INSERT INTO assay_data (molecule, unit_text, measured_value) VALUES
  ('NS(=O)(=O)c1cc2c(cc1Cl)NCNS2(=O)=O [HYDROCHLOROTHIAZIDE]', 'mg/dL', 149.33);

Prompt line: Find the recorded GLUCOSE belonging to CC(=O)O[C@]1(C(C)=O)CC[C@H]2[C@@H]3C=C(Cl)C4=CC(=O)CC[C@]4(C)[C@H]3CC[C@@]21C [CHLORMADINONE ACETATE] and report it.
Response line: 135.67

Prompt line: Entry to check: O=C1CN=C(c2ccccc2)c2cc([N+](=O)[O-])ccc2N1
Response line: 141.67

Prompt line: And COc1c(C)c2c(c(O)c1C/C=C(\C)CCC(=O)OCCN1CCOCC1)C(=O)OC2 [MYCOPHENOLATE MOFETIL] ?
Response line: 164
